What follows is literature data on pIC50 for Cholecystokinin receptor type A (Rattus norvegicus, UniProt P30551).
Expect pIC50 as a plain number equal to -log10 of the molar concentration.

Solved cases (6 shown):
{"columns": ["molecule", "pIC50"],
 "data": [
  ["CC[C@H](C)[C@H](NC(=O)[C@H]1Cc2c([nH]c3ccccc23)CN1C(=O)Nc1ccc(Cl)c(Cl)c1)C(=O)N[C@@H](CC(=O)O)C(N)=O", 4.44],
  ["CC(C)CN1C(=O)C=C(Cl)C1(O)c1ccccc1 (centres unmarked)", 5.35],
  ["CCCCCN(CCCCC)C(=O)[C@H]1Cc2c([nH]c3ccccc23)CN1C(=O)Nc1cccc(C)c1", 5.00],
  ["CCCCCN(CCCCC)C(=O)[C@H](CC(=O)O)NC(=O)[C@H]1Cc2c([nH]c3ccccc23)CN1C(=O)Nc1cccc(C)c1", 5.41],
  ["CC(C)C[C@H](NC(=O)[C@H]1Cc2c([nH]c3ccccc23)CN1C(=O)c1ccc2ccccc2c1)C(=O)N[C@@H](CC(=O)O)C(N)=O", 4.60],
  ["Cc1cccc(NC(=O)N2Cc3[nH]c4ccccc4c3C[C@@H]2C(=O)N[C@@H](CC(C)C)C(=O)N[C@@H](CC(=O)O)C(N)=O)c1", 4.47]
]}

**Q:** What does the data say about its pIC50? Entry: `Cc1cccc(NC(=O)N2Cc3[nH]c4ccccc4c3C[C@H]2C(=O)N[C@@H](CC(C)C)C(=O)N[C@@H](CC(=O)O)C(N)=O)c1`
**A:** 3.77

**Q:** Please give the result for `COc1ccc(NC(=O)N2C[C@H](OCc3ccccc3)C[C@H]2C(=O)N2CCc3c([nH]c4ccccc34)C2)cc1` too.
**A:** 4.82

**Q:** Please give the result for `O=C([C@H]1CCCN1C(=O)Nc1ccc2ccccc2c1)N1CCc2c([nH]c3ccccc23)C1` too.
**A:** 5.14

**Q:** Please give the result for `CC(C)C[C@H](NC(=O)[C@H]1Cc2c([nH]c3ccccc23)CN1C(=O)Nc1cc(Cl)cc(Cl)c1)C(=O)N[C@@H](CC(=O)O)C(N)=O` too.
**A:** 4.47
